Please provide measured photoluminescence quantum yield for the entries that follow.
assay: photoluminescence quantum yield (fraction); solvent given as SMILES; conditions: in c1ccc2c(c1)c1ccccc1n2-c1ccc(-c2ccc(-n3c4ccccc4c4ccccc43)cc2)cc1
One number for each entry.

Check out these entries, answers already filled in.
{"CPD SMILES": "O=C1c2ccc(-c3ccc(N(c4ccc(-c5ccccc5)cc4)c4ccc(-c5ccccc5)cc4)cc3)cc2C(=O)c2ccc(-c3ccc(N(c4ccc(-c5ccccc5)cc4)c4ccc(-c5ccccc5)cc4)cc3)cc21", "TEST RESULT": 0.76}
{"CPD SMILES": "N#Cc1c(-n2c3ccccc3c3ccccc32)c(C#N)c(-n2c3ccccc3c3ccccc32)c(-n2c3ccccc3c3ccccc32)c1-n1c2ccccc2c2ccccc21", "TEST RESULT": 0.83}
{"CPD SMILES": "O=C1c2ccc(N(c3ccccc3)c3ccccc3)cc2C(=O)c2ccc(N(c3ccccc3)c3ccccc3)cc21", "TEST RESULT": 0.5}
{"CPD SMILES": "CC(C)(C(=O)c1ccc(N2c3ccccc3C(C)(C)c3ccccc32)cc1)C(=O)c1ccc(N2c3ccccc3C(C)(C)c3ccccc32)cc1", "TEST RESULT": 0.64}
{"CPD SMILES": "CCCCCCN1C(=O)c2cc(-c3ccc(-n4c5ccccc5c5ccccc54)cc3)c(-c3ccc(-n4c5ccccc5c5ccccc54)cc3)cc2C1=O", "TEST RESULT": 0.7}

// each listed compound needs a value for photoluminescence quantum yield
1. CC1(C)c2ccccc2N(c2ccc(-c3ccc4c(c3)C(=O)c3ccc(-c5ccc(N6c7ccccc7C(C)(C)c7ccccc76)cc5)cc3C4=O)cc2)c2ccccc21
2. O=S(=O)(c1ccc(-c2ccc(-c3nc4c5ccccc5c5ccccc5c4n3-c3ccccc3)cc2)cc1)c1ccc(-c2ccc(-c3nc4c5ccccc5c5ccccc5c4n3-c3ccccc3)cc2)cc1

Marked response:
1. 0.5
2. 0.72

###

Please provide measured photoluminescence quantum yield for the entries that follow.
test: photoluminescence quantum yield (fraction); solvent given as SMILES; details: in CS(C)=O
One number for each entry.

Check out these entries, answers already filled in.
{"CPD SMILES": "CCN(CC)c1ccc2cc(-c3csc(NC(C)=O)c3C#N)c(=O)oc2c1", "photoluminescence quantum yield": 0.07}
{"CPD SMILES": "CN(C)c1ccc(C#Cc2ccc(C#N)cc2)cc1", "photoluminescence quantum yield": 0.029}
{"CPD SMILES": "O=c1oc2ccccc2cc1-c1ccc([N+](=O)[O-])cc1", "photoluminescence quantum yield": 0.0013}
{"CPD SMILES": "CCN(CC)c1ccc2cc(/C(Cl)=C/C=C/C(=C(C#N)C#N)c3ccc4c(c3)c3ccccc3n4CC)c(=O)oc2c1", "photoluminescence quantum yield": 0.018}
{"CPD SMILES": "Cn1c(=O)c(/N=N/c2cc(S(=O)(=O)O)ccc2C(=O)O)c(O)c2ccccc21", "photoluminescence quantum yield": 0.06}

// each listed molecule needs a value for photoluminescence quantum yield
1. CCCCN1/C(=C/C=C/C2=[N+](C)c3ccccc3C2(C)C)C(C)(C)c2cc(Br)ccc21
2. O=C1/C(=C\c2ccc(N(c3ccccc3)c3ccccc3)cc2)S(=O)(=O)c2ccccc21

Marked response:
0.12
0.032

// each listed molecule needs a value for photoluminescence quantum yield
1. CCCN1/C(=C/C=C(/C=C/C2=[N+](CCC)c3ccccc3C2(C)C)c2ccc3ccccc3n2)C(C)(C)c2ccccc21
2. CCC1=C(C)C(=O)n2c1cc1c(c(C)c(C(=O)OC)n1C)c2=O

Marked response:
[0.37, 0.8]

###

Please provide measured photoluminescence quantum yield for the entries that follow.
experiment: photoluminescence quantum yield (fraction); solvent given as SMILES; details: in CCOC(C)=O
Give bare numbers.

Check out these entries, answers already filled in.
{"CPD SMILES": "COC(=O)c1nc(-c2ccc(OC)cc2)oc1C", "photoluminescence quantum yield": 0.31}
{"CPD SMILES": "COC(=O)[C@H](Cc1ccc2oc3c(c2c1)=CC1=C(c2ccc(OC)cc2)c2cc4c5cc(C[C@H](NC(=O)OC(C)(C)C)C(=O)OC)ccc5oc4n2[B-](F)(F)[N+]=31)NC(=O)OC(C)(C)C", "photoluminescence quantum yield": 0.86}
{"CPD SMILES": "CCN(CC)c1ccc2cc(-c3nc4ccccc4s3)c(=O)oc2c1", "photoluminescence quantum yield": 0.47}
{"CPD SMILES": "CN(C)c1ccc2c(c1)COc1c-2oc2ccccc2c1=O", "photoluminescence quantum yield": 0.95}
{"CPD SMILES": "CC(=O)c1nc(-c2ccc(N(C)C)cc2)oc1C", "photoluminescence quantum yield": 0.03}

// each listed compound needs a value for photoluminescence quantum yield
1. Nc1cc(N)cc(-c2nc3ccccc3s2)c1
2. COC1=[N+]2C(=C(c3ccccc3)c3ccc(OC)n3[B-]2(F)F)C=C1SC#N
3. CCCN1C(=O)c2c3c(c4c(c2C1=O)CCc1cc(-c2ccc(N(C)C)cc2)c(OC)cc1-4)-c1cc(OC)c(-c2ccc(N(C)C)cc2)cc1CC3
4. [C-]#[N+]c1ccc(-c2ccc(N(C)C)cc2)cc1

Marked response:
1. 0.053
2. 0.14
3. 0.065
4. 0.54

###

test: photoluminescence quantum yield (fraction); solvent given as SMILES; settings: in C1CCOC1
Please provide measured photoluminescence quantum yield for the entries that follow.
Give bare numbers.

Check out these entries, answers already filled in.
{"CPD SMILES": "COc1cc2c(cc1-c1ccc(F)cc1)Cc1c3c(c4c(c1-2)-c1cc(OC)c(-c2ccc(F)cc2)cc1C4)C(=O)N(CCC(C)C)C3=O", "photoluminescence quantum yield": 0.52}
{"CPD SMILES": "CCCCOc1cc2ccccc2c2c1oc1cc3ccccc3cc12", "photoluminescence quantum yield": 0.63}
{"CPD SMILES": "CC(C)(C)c1ccc(C2=C(c3ccc(N(c4ccccc4)c4ccccc4)cc3)S(=O)(=O)c3c2sc(-c2ccc(N(c4ccccc4)c4ccccc4)cc2)c3-c2ccc(C(C)(C)C)cc2)cc1", "photoluminescence quantum yield": 0.442}

From here, focus on the item given below.
Exam item: If you can, please state the reported photoluminescence quantum yield value of `CN(C)c1ccc(C2=Cc3cccc[n+]3[B-](F)(F)O2)cc1` .
Marked response: 0.684

###

experiment: photoluminescence quantum yield (fraction); solvent given as SMILES; settings: in C1CCOC1
# binarize photoluminescence quantum yield: threshold 0.5 inclusive, high side TRUE, low side FALSE

{"COMPOUND": "CCC1(CC)c2cc(Br)ccc2-c2c1c1c(c3c2C(CC)(CC)c2cc(-c4cccs4)ccc2-3)C(CC)(CC)c2cc(Br)ccc2-1", "DISCRETE LABEL": "FALSE"}

Exam item: For this compound, is measured photoluminescence quantum yield 0.5 or higher? `CCC1(CC)c2cc(/C=C/c3cc(C#N)c(/C=C/c4ccc5c(c4)C(CC)(CC)c4cc(N6c7ccccc7Sc7ccccc76)ccc4-5)cc3C#N)ccc2-c2ccc(N3c4ccccc4Sc4ccccc43)cc21`
Marked response: FALSE

Exam item: Next: COC(=O)C(Cc1ccc2oc(-c3ccc4c(c3)c3ccccc3n4-c3ccccc3)nc2c1)NC(=O)OC(C)(C)C (configuration not stated)
Marked response: TRUE

Exam item: Next: `O=C1C2=C(O[B-](F)(F)[n+]3c2ccc2ccccc23)c2ccc(N3CCOCC3)c3cccc1c23`
Marked response: TRUE

Exam item: Next: `Cc1cc(C2=C(c3cc(C)sc3C)S(=O)(=O)c3ccccc32)c(C)s1`
Marked response: FALSE

Exam item: Next: `CC1=[N+]2C(=C(c3ccc(C(=C(c4ccccc4)c4ccccc4)c4ccccc4)cc3)c3ccc(/C=C/c4ccc(C(=C(c5ccccc5)c5ccccc5)c5ccccc5)cc4)n3[B-]2(F)F)C=C1`
Marked response: TRUE

###

test: photoluminescence quantum yield (fraction); solvent given as SMILES; conditions: in Cc1ccccc1
MEASURED PROPERTY: photoluminescence quantum yield
One number for each entry.

{"CPD SMILES": "CCN(CC)c1ccc(-c2ccc(-c3nc4ccccc4c(=O)[nH]3)s2)cc1", "TEST RESULT": 0.71}

// each listed compound needs a value for photoluminescence quantum yield
1. Cc1cc(C)c(B(c2ccc(-c3ccc(-c4nc5c6ccccc6c6ccccc6c5[nH]4)cc3)cc2)c2c(C)cc(C)cc2C)c(C)c1
2. CCCCCCCCn1c2ccc(/C=C/c3ccc(N(c4ccccc4)c4ccccc4)cc3)cc2c2cc3c(cc21)c1cc(/C=C/c2ccc(N(c4ccccc4)c4ccccc4)cc2)ccc1n3CCCCCCCC

Marked response:
1: 0.68; 2: 0.6

Exam item: If you can, please state the reported photoluminescence quantum yield value of `CC(C)(C)c1ccc(C2=c3c(c4ccc(C(C)(C)C)cc4c4cc(C(C)(C)C)ccc34)=[N+]3C2=C(c2ccccc2)c2c(-c4ccc(C(C)(C)C)cc4)c4c5ccc(C(C)(C)C)cc5c5cc(C(C)(C)C)ccc5c4n2[B-]3(F)F)cc1` .
Marked response: 0.46
